Data origin: PubChem BioAssay (NCI)

- Tested on: HCC-2998 colon
- Method Description: NCI-60 one-dose screen, 48 h (100 = growth as untreated, 0 = no growth, -100 = all killed)
- Condition Details: 10 µM unless noted
- Procedure: Growth inhibition of the HCC-2998 human tumor cell line is measured as a screen for anti-cancer activity. Cells are grown in 96 well plates and exposed to the test compound for 48 hours. Compounds are tested at a single concentration, which is 10^-5 M for most compounds. The reported endpoint is percent growth (GI% or GIPRCNT), where numbers from 0 - 100% represent growth inhibition, and numbers from -100% - 0 represent cell death. For example, a value of 40 represents 60% growth inhibition. […]
The panel holds about 83,000 compounds, 20% with a hit somewhere; the sample as a whole holds those more often. The source made the active and inactive calls. How the source made its calls: active means growth percent below 10; inactive means the rest.

Compound	growth
CCOC(=O)c1c2c(n3cccc(F)c13)C(=O)c1ncccc1C2=O	25% (inactive)
COc1cc(OCc2cccc(Br)c2C)cc(OC)c1C=O	96.5% (inactive)
O=C(Cn1cc(CSc2nc3ccccc3o2)nn1)Nc1ccc(F)cc1F	111% (inactive)
CC(C)c1ccc(-n2c(=S)[nH]c3sc4cc(O)ccc4c3c2=O)cc1	103% (inactive)
CC(=O)N1N=C(c2ccc(Nc3nc(Nc4ccccc4)nc(Nc4ccccc4)n3)cc2)CC1c1ccccc1 (configuration not stated)	99.2% (inactive)
CC(=O)Oc1ccc(C)cc1C	112% (inactive)
CS(=O)(=O)Nc1cc(-c2ccc3ncnc(Nc4ccc5c(cnn5Cc5cccc(F)c5)c4)c3c2)cnc1Cl	2.5% (active)
COC1/C=C/OC2(C)Oc3c(C)c(O)c4c(O)c(c(/C=N/Nc5ccc([N+](=O)[O-])cc5[N+](=O)[O-])c(O)c4c3C2=O)NC(=O)C(C)=C/C=C/C(C)C(O)C(C)C(O)C(C)C(OC(C)=O)C1C (configuration not stated)	-14.1% (active)
COc1ccc(/C=C/C(=O)c2ccc(Nc3ccnc4cc(Cl)ccc34)cc2)cc1	58.7% (inactive)
CN(C)S(=O)(=O)c1cccc(C(=O)Nc2nc(-c3ccc(F)c(F)c3)cs2)c1	88.1% (inactive)
Cc1ccccc1/C=C/C(=O)c1cccc(OCCCOc2cccc(C(=O)/C=C/c3ccccc3C)c2)c1	91.2% [3 µM] (inactive)
COc1cc(/C=C2/C=C(c3ccccc3)N(CCc3ccc(S(N)(=O)=O)cc3)C2=O)cc(OC)c1OC	105% (inactive)
COc1c(B(O)O)cccc1-c1cc(C)c2c(ccc3[nH]ncc32)n1	105% (inactive)
Cc1ccc2c(Cn3cc(CSc4nc5ccccc5o4)nn3)cc(=O)oc2c1	115% (inactive)
CNc1nnc2n(-c3ccccc3)c(=O)c3cnn(-c4ccccc4)c3n12	112% (inactive)
CCOc1nc(-c2ccccc2)cc2c(O)c(C(=O)N/N=C/c3ccccc3)[nH]c(=O)c12	8.59% (active)
Nc1c(C(=O)Nc2ccncc2)sc2nc3c(cc12)C(O)CCC3 (configuration not stated)	96.7% (inactive)
Nc1ncnc2c1N=C(c1ccc(Br)cc1)CC(c1cccc(Nc3ccnc4cc(C(F)(F)F)ccc34)c1)N2 (configuration not stated)	67.2% (inactive)
CCOC(=O)[C@@H]1CSC(CC)=C(C(=O)O)N1	111% (inactive)
COC(=O)/C=C1/SC(=Nc2ccc(C(F)(F)F)cc2)N(CCc2c[nH]c3ccc(O)cc23)C1=O	-61.4% (active)
COC1=CC(c2ccc[nH]2)=N/C1=C\c1[nH]c(C)c(CC(=O)OCc2ccccc2)c1CCC(=O)OCc1ccccc1	-3.69% (active)
CCn1cc(C(=O)NNC(=S)Nc2ccc(C)cc2)c(=O)c2ccc(C)nc21	92.7% (inactive)
